Reference for the values: paper PMC7144120

# EXPERIMENTAL_TARGET: Mtb proteasome (Mycobacterium tuberculosis, UniProt P9WHT9)
# Construct: made in house
# Sequence (P9WHT9 whole entry, looked up): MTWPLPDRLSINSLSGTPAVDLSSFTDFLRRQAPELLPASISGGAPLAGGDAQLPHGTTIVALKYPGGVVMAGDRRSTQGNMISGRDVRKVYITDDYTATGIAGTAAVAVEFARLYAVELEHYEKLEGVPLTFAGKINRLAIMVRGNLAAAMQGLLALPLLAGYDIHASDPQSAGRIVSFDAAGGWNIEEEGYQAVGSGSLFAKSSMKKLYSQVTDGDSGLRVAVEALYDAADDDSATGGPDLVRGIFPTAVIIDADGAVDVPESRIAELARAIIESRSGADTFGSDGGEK
# PROCEDURE_TEXT: Determination of Ki and type of inhibition (varied substrate concentration, GraphPad Prism model fit)
# Format: biochemical
# CONDITION_SET: Ki, best scoring inhibition model
OBSERVATION_TYPE: Ki (nM)
Response body: numeric value in nM, unit text excluded.

Known results for compounds:
Cc1c(CCC(=O)ON2C(=O)CCC2=O)c(=O)oc2cc3occ(-c4ccco4)c3cc12 :: 4200
Cc1cc(-c2coc3cc4oc(=O)c(CC(=O)ON5C(=O)CCC5=O)c(C)c4cc23)c(C)s1 :: 1100
Cc1c(CCC(=O)NCC#N)c(=O)oc2cc3occ(C(C)(C)C)c3cc12 :: 5600

For the next question, use this compound.
### Prompt Please report Ki with Mtb proteasome (Mycobacterium tuberculosis, UniProt P9WHT9) for item CC(C)C[C@H](NC(=O)[C@H](Cc1ccccc1)NC(=O)c1cnccn1)B(O)O [Bortezomib, reference compound] .
### Response 133

====

# EXPERIMENTAL_TARGET: Mtb proteasome (Mycobacterium tuberculosis)
# Construct: made in house
# PROCEDURE_TEXT: biochemical
# Assay type: biochemical
Parameter: RA at 100 µM against Mtb. Scope: all listed entries.
Write down the numeric answer in % and omit the unit.

Cc1c(CC(=O)O)c(=O)oc2cc3occ(C4CCCCC4)c3cc12 :: 90
Cc1c(CC(=O)ON2C(=O)CCC2=O)c(=O)oc2cc3occ(-c4ccccc4)c3cc12 :: 79
Cc1cc(-c2coc3cc4oc(=O)c(CCC(=O)N(C)CC#N)c(C)c4cc23)c(C)s1 :: 55
Cc1c(CC(=O)O)c(=O)oc2cc3occ(-c4ccccc4)c3cc12 :: 96
Cc1c(CCC(=O)N(C)CC#N)c(=O)oc2cc3occ(-c4ccc(Br)cc4)c3cc12 :: 91
Cc1c(CC(=O)NCC#N)c(=O)oc2cc3occ(C4CCCCC4)c3cc12 :: 91
Cc1c(CC(=O)ON2C(=O)CCC2=O)c(=O)oc2cc3occ(C(C)(C)C)c3cc12 :: 88

### Prompt Provide measured RA at 100 µM against Mtb value, entry: COc1cccc(-c2coc3cc4oc(=O)c(CC(=O)O)c(C)c4cc23)c1
### Response 98

====

// values below are reported Hill Coefficient
# EXPERIMENTAL_TARGET: Mtb proteasome (Mycobacterium tuberculosis)
# Construct: made in house
# PROCEDURE_TEXT: biochemical
# Format: biochemical
# CONDITION_SET: from IC50 curve, Mtb proteasome
Output: the number by itself.

Cc1c(CC(=O)O)c(=O)oc2cc3occ(-c4ccc(Br)cc4)c3cc12 [Compound 4] :: 1.59
Cc1c(CCC(=O)O)c(=O)oc2cc3occ(-c4ccc(C(=O)O)cc4)c3cc12 [Compound 3] :: 1.22
Cc1cc(-c2coc3cc4oc(=O)c(CC(=O)ON5C(=O)CCC5=O)c(C)c4cc23)c(C)o1 [Compound 14] :: 2.42
Cc1cc(-c2coc3cc4oc(=O)c(CC(=O)ON5C(=O)CCC5=O)c(C)c4cc23)c(C)s1 [Compound 13] :: 0.90

### Prompt Recall the reported Hill Coefficient of Cc1c(CCC(=O)O)c(=O)oc2c(C)c3occ(-c4ccc(Br)cc4)c3cc12 [Compound 5] when tested on Mtb proteasome (Mycobacterium tuberculosis).
### Response 0.70

====

# EXPERIMENTAL_TARGET: Mtb proteasome (Mycobacterium tuberculosis)
OBSERVATION_TYPE: IC50 (µM)
Report the figure in µM without appending any unit label.

Sample records with IC50:
Cc1c(CCC(=O)ON2C(=O)CCC2=O)c(=O)oc2cc3occ(C4CCCCC4)c3cc12 :: 5
Cc1cc(-c2coc3cc4oc(=O)c(CC(=O)ON5C(=O)CCC5=O)c(C)c4cc23)c(C)s1 :: 3.2
Cc1cc(-c2coc3cc4oc(=O)c(CC(=O)NCC#N)c(C)c4cc23)c(C)o1 :: 3
Cc1cc(-c2coc3cc4oc(=O)c(CC(=O)ON5C(=O)CCC5=O)c(C)c4cc23)c(C)o1 :: 9
Cc1c(CCC(=O)O)c(=O)oc2c(C)c3occ(-c4ccc(Br)cc4)c3cc12 :: 17

### Prompt Look up IC50 of COc1ccc(C[C@H](NC(=O)[C@H](C)NC(=O)CN2CCOCC2)C(=O)N[C@@H](Cc2ccccc2)C(=O)[C@@]2(C)CO2)cc1 [PR-957, reference compound] and report it.
### Response 2.2

### Prompt Query IC50 for Cc1c(CCC(=O)NCC#N)c(=O)oc2cc3occ(C(C)(C)C)c3cc12
### Response 3.7

### Prompt Name the recorded IC50 of the compound listed here: Cc1c(CCC(=O)N(C)CC#N)c(=O)oc2cc3occ(C(C)(C)C)c3cc12
### Response 8

====

# EXPERIMENTAL_TARGET: Mtb proteasome (Mycobacterium tuberculosis, UniProt P9WHT9)
# Construct: made in house
# PROCEDURE_TEXT: biochemical
# Assay type: biochemical
OBSERVATION_TYPE: RA at 100 µM against Mtb (%)
Give your result in % as a bare value.

Cc1coc2cc3oc(=O)c(CC(=O)ON4C(=O)CCC4=O)c(C)c3cc12 :: 53
COc1ccc(-c2coc3cc4oc(=O)c(CCC(=O)O)c(C)c4cc23)cc1 :: 100
Cc1c(CCC(=O)NCC#N)c(=O)oc2cc3occ(-c4ccco4)c3cc12 :: 100
Cc1coc2cc3oc(=O)c(CC(=O)N(C)CC#N)c(C)c3cc12 :: 95
Cc1c(CCC(=O)O)c(=O)oc2c(C)c3occ(-c4ccc(Cl)cc4)c3cc12 :: 47
Cc1c(N)c(=O)oc2cc3occ(-c4ccccc4)c3cc12 :: 100
Cc1c(CN)c(=O)oc2cc3occ(-c4ccccc4)c3cc12 :: 55
Cc1coc2cc3oc(=O)c(CCC(=O)N(C)CC#N)c(C)c3cc12 :: 99

Lab note: next compound to report on.
### Prompt State RA at 100 µM against Mtb on Mtb proteasome (Mycobacterium tuberculosis, UniProt P9WHT9). Entry: Cc1c(NC(=O)CC#N)c(=O)oc2cc3occ(-c4ccccc4)c3cc12
### Response 93

====

# EXPERIMENTAL_TARGET: Mtb proteasome (Mycobacterium tuberculosis)
# Construct: made in house
# PROCEDURE_TEXT: biochemical
# Assay type: biochemical
RA at 100 µM against Mtb values, listed per item
Respond with the bare value in %.

Cc1c(CCc2nsc(=O)o2)c(=O)oc2cc3occ(-c4ccccc4)c3cc12 :: 69
C=CC(=O)NCc1c(C)c2cc3c(-c4ccccc4)coc3cc2oc1=O :: 68
Cc1coc2cc3oc(=O)c(CCC(=O)O)c(C)c3cc12 :: 93

### Prompt Query RA at 100 µM against Mtb for Cc1c(CCC(=O)ON2C(=O)CCC2=O)c(=O)oc2cc3occ(-c4ccccc4)c3cc12
### Response 66

====

# EXPERIMENTAL_TARGET: Mtb proteasome (Mycobacterium tuberculosis)
# Construct: made in house
# PROCEDURE_TEXT: biochemical
# Type: biochemical
# CONDITION_SET: from IC50 curve, Mtb proteasome
OBSERVATION_TYPE: Hill Coefficient
# respond with the number and nothing more

Cc1c(CCC(=O)ON2C(=O)CCC2=O)c(=O)oc2cc3occ(-c4ccco4)c3cc12 :: 0.90
Cc1c(CCC(=O)NCC#N)c(=O)oc2cc3occ(C(C)(C)C)c3cc12 :: 1.05
CC(C)C[C@H](NC(=O)[C@H](Cc1ccccc1)NC(=O)c1cnccn1)B(O)O [Bortezomib, reference compound] :: 0.76
Cc1c(CCC(=O)N(C)CC#N)c(=O)oc2cc3occ(C(C)(C)C)c3cc12 :: 0.42
Cc1c(CCC=O)c(=O)oc2cc3c(cc12)C(c1ccccc1)CO3 (stereo not shown) :: 0.55
COc1ccc(C[C@H](NC(=O)[C@H](C)NC(=O)CN2CCOCC2)C(=O)N[C@@H](Cc2ccccc2)C(=O)[C@@]2(C)CO2)cc1 [PR-957, reference compound] :: 0.91

Let's switch to this molecule now.
### Prompt Give Hill Coefficient for Cc1c(CCC(=O)ON2C(=O)CCC2=O)c(=O)oc2cc3occ(C4CCCCC4)c3cc12 tested on Mtb proteasome (Mycobacterium tuberculosis).
### Response 1.05

====

Here's what we have: pIC50 numbers for Mtb proteasome (Mycobacterium tuberculosis).
Please keep in mind that pIC50 is minus log10 of the molar concentration; only the number is needed.

Cc1c(CCC(=O)O)c(=O)oc2cc3occ(-c4ccc(Br)cc4)c3cc12 :: 4.41
Cc1c(CCC(=O)NCC#N)c(=O)oc2cc3occ(-c4ccccc4)c3cc12 :: 5.70

Consider now this further molecule.
### Prompt Find pIC50 for Cc1c(CC(=O)O)c(=O)oc2cc3occ(-c4ccc(Br)cc4)c3cc12 on Mtb proteasome (Mycobacterium tuberculosis) and write it down.
### Response 5.40
